# TESTED_ON: PIM1 kinase (Homo sapiens)
# Construct: purchased Reaction Biology Corp. (Malvern, PA, USA), contract assay service
# PROTOCOL_DETAILS: radiometric ([γ-33P]-ATP) kinase assay, PIM1 enzyme inhibition (Reaction Biology Corp.)
# Type: biochemical
# ASSAY_SETUP: PIM1; natural-product inhibitors; mean ± standard deviation of the two experiments
pIC50: −log10 of the molar value.
MEASURED_ATTRIBUTE: pIC50

Req: Name the recorded pIC50 of O=c1c(-c2ccc(OC3OC(CO)C(O)C(O)C3O)cc2)coc2cc(O)cc(O)c12 (stereo not shown) , assay system PIM1 kinase (Homo sapiens).
Resp: 4.69

A: COc1c(O)c(O)c2oc(-c3ccccc3)cc(=O)c2c1OC
B: O=C1c2c(O)cc(O)cc2O[C@H](c2ccc(O)c(O)c2)[C@H]1O
C: COc1ccc(/C=C2\Oc3cc(O)ccc3C2=O)cc1
Req: With regard to pIC50, arrange the entries in ascending order, please. Please list the labels according to the requested order.
Resp: B, C, A

====

# TESTED_ON: PIM1 kinase (Homo sapiens, UniProt P11309)
# Construct: purchased Reaction Biology Corp. (Malvern, PA, USA), contract assay service
# Sequence (P11309 whole entry): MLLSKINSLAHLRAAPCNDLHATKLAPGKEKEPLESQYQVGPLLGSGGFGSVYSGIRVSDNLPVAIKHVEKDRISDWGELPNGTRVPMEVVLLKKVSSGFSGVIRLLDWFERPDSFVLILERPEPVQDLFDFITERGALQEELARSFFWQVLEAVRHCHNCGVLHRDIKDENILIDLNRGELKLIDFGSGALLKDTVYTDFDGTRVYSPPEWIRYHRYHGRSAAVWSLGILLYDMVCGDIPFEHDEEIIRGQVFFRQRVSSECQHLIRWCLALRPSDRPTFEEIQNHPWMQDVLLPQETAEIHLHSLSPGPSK
# PROTOCOL_DETAILS: radiometric ([γ-33P]-ATP) kinase assay, PIM1 enzyme inhibition (Reaction Biology Corp.)
# Type: biochemical
# ASSAY_SETUP: PIM1
# Procedure: Among a total of 42,613 natural products in the chemical database, 31,874 molecules that satisfied the physicochemical property criteria for a potential drug candidate were screened through docking simulations in the ATP-binding site of PIM1 kinase, as illustrated in Figure 1. […] The inhibitory activities of all compounds with respect to PIM1 were measured by Reaction Biology Corp. (Malvern, PA, USA) using radiometric kinase assays ([γ-^33P]-ATP). […]
MEASURED_ATTRIBUTE: IC50 (nM)
I only need the number, in nM, no unit after it.

Req: Give recorded IC50. O=C1/C(=C/c2c[nH]c3nc(Cl)ncc23)Oc2cc(O)cc(O)c21
Resp: 7

====

# TESTED_ON: PIM1 kinase (Homo sapiens, UniProt P11309)
# Construct: purchased Reaction Biology Corp. (Malvern, PA, USA), contract assay service
# PROTOCOL_DETAILS: radiometric ([γ-33P]-ATP) kinase assay, PIM1 enzyme inhibition (Reaction Biology Corp.)
# Assay type: biochemical
# ASSAY_SETUP: PIM1 kinase; derivatives of 2; mean ± standard deviation of the two experiments
pIC50: −log10 of the molar value.
MEASURED_ATTRIBUTE: pIC50

P: COc1cc(/C=C2\Oc3cc(O)ccc3C2=O)ccc1Cl [Compound 8]
Q: COc1ccc(/C=C2\Oc3cc(O)ccc3C2=O)cc1 [Compound 2]
R: COc1cc(O)c2c(c1)O/C(=C\c1c[nH]c3ncc(Cl)cc13)C2=O [Compound 15]
S: COc1ccc(/C=C2\Oc3cc(O)ccc3C2=O)cn1 [Compound 11]
Req: Rank descending by pIC50: all 4 compounds from above. Please list the labels according to the requested order.
Resp: R, P, Q, S
(R: 8.06, P: 6.70, Q: 5.92, S: 5.28)

====

# TESTED_ON: PIM1 kinase (Homo sapiens, UniProt P11309)
# Construct: purchased Reaction Biology Corp. (Malvern, PA, USA), contract assay service
# PROTOCOL_DETAILS: radiometric ([γ-33P]-ATP) kinase assay, PIM1 enzyme inhibition (Reaction Biology Corp.)
# Type: biochemical
# ASSAY_SETUP: PIM1 kinase; derivatives of 2; mean ± standard deviation of the two experiments
MEASURED_ATTRIBUTE: IC50 (nM)

Req: Give recorded IC50. O=C1/C(=C/c2c[nH]c3nc(Cl)ncc23)Oc2cc(O)cc(O)c21
Resp: 6.7

A: COc1cccc(/C=C2\Oc3cc(O)ccc3C2=O)c1
B: COc1cc(/C=C2\Oc3cc(O)cc(O)c3C2=O)ccc1Cl
C: O=C1/C(=C/c2cc3ccccc3[nH]c2=O)Oc2cc(O)cc(O)c21
D: O=C1/C(=C/c2ccc(Cl)c(Cl)c2)Oc2cc(O)cc(O)c21
Req: With regard to IC50, arrange the entries in ascending order, please. Please list the labels according to the requested order.
Resp: B, A, D, C

I: COc1cccc(/C=C2\Oc3cc(O)cc(O)c3C2=O)c1
II: COc1cc(O)c2c(c1)O/C(=C\c1cc(-c3ccncc3)[nH]n1)C2=O
III: O=C1/C(=C/c2cccc(Cl)c2)Oc2cc(O)cc(O)c21
Req: Order these by IC50, descending, and give the full ranking. Please list the labels according to the requested order.
Resp: III, I, II
(III: 1450 nM, I: 310 nM, II: 18 nM)
